Values from PubChem BioAssay (NCI)

System: NCI-H226 lung
Experiment: NCI tumour cell line growth inhibition, 48 h
Examples of compounds with documented GI50 follow.

Would you please look over these solved cases?
O=[n+]1c2ccccc2n([O-])c2cc(Cl)ccc21    7.32 µM
O=C1Nc2ccccc2/C1=C\c1nc(C2CCN(S(=O)(=O)c3ccc(F)cc3)CC2)n2ccccc12    2.32 µM
CCc1cc2ncc(CN3CCN(c4ccc(C(=O)NC)nc4)CC3)cc2[nH]c1=O    14.7 µM
Cc1[nH]c(-c2nc3ccccc3[nH]2)c(C)c1C(=O)NC(C)C1CCCCC1 (stereo not given)    13.9 µM

# evaluate next
Tell me measured GI50 for COC(=O)/C=C1/SC(N2N=C(c3cccs3)CC2c2ccc(F)cc2)=NC1=O (stereo not given) please.
2.24 µM
